- study.conditions: in chloroform, 298.15 K
readout.type: solubility (mole fraction)
Note: the reply should be a number with no unit written.

stdin: Fill blank: measured solubility (mole fraction) of the compound O=C1NC(=O)c2cc([N+](=O)[O-])ccc21 is ____.
stdout: 0.00109

* * *

- study.conditions: in cyclohexanone, 293.15 K
readout.type: solubility (mole fraction)
// return just the number, without any unit appended

stdin: Which solubility (mole fraction) reading was recorded for the compound O=C1NC(=O)c2cc([N+](=O)[O-])ccc21 ?
stdout: 0.0422

* * *

- study.conditions: in acetone, 303.15 K
readout.type: solubility (mole fraction)
Lab note: jot down the number only; don't add units.

stdin: Requested field: solubility (mole fraction). Item: O=C1NC(=O)c2cc([N+](=O)[O-])ccc21
stdout: 0.0293

* * *

- study.conditions: in ethanol, 318.15 K
readout.type: solubility (mole fraction)
Answer field: number only, no words.

stdin: So what's the measured solubility (mole fraction) for this one? O=C1NC(=O)c2cc([N+](=O)[O-])ccc21
stdout: 0.00405

* * *

- study.conditions: in acetone, 275.65 K
readout.type: solubility (mole fraction)
Reply briefly: the number, and no unit.

stdin: Entry O=C1NC(=O)c2cc([N+](=O)[O-])ccc21 : reported solubility (mole fraction) = ?
stdout: 0.0185

* * *

- study.conditions: in 2-butanone, 285.65 K
readout.type: solubility (mole fraction)
// keep it numeric: no unit symbol after the value

stdin: Looking for the measured solubility (mole fraction) of O=C1NC(=O)c2cc([N+](=O)[O-])ccc21 , can you help?
stdout: 0.0205

* * *

- study.conditions: in benzyl alcohol, 275.65 K
readout.type: solubility (mole fraction)
Field format: numeric only.

stdin: Which solubility (mole fraction) value is on record for O=C1NC(=O)c2cc([N+](=O)[O-])ccc21 ?
stdout: 0.0143

* * *

- study.conditions: in isopropanol, 275.65 K
readout.type: solubility (mole fraction)
Give a plain numeric answer without units written out.

stdin: Returns the measured solubility (mole fraction) for the input molecule. Input: O=C1NC(=O)c2cc([N+](=O)[O-])ccc21
stdout: 0.000643

* * *

- study.conditions: in benzyl alcohol, 283.15 K
readout.type: solubility (mole fraction)
Respond with the number and no other words.

stdin: // lookup solubility (mole fraction) for O=C1NC(=O)c2cc([N+](=O)[O-])ccc21
stdout: 0.0175

* * *

- study.conditions: in isopropanol, 305.65 K
readout.type: solubility (mole fraction)
Give the figure by itself; no unit, no explanation.

stdin: What measured solubility (mole fraction) goes with O=C1NC(=O)c2cc([N+](=O)[O-])ccc21 ?
stdout: 0.00234

* * *

- study.conditions: in cyclohexanone, 318.15 K
readout.type: solubility (mole fraction)
Could you keep your reply to the number by itself?

stdin: Field request: solubility (mole fraction) | item: O=C1NC(=O)c2cc([N+](=O)[O-])ccc21
stdout: 0.0655

* * *

- study.conditions: in cyclohexanone, 273.15 K
readout.type: solubility (mole fraction)

stdin: # query: solubility (mole fraction) of entry O=C1NC(=O)c2cc([N+](=O)[O-])ccc21
stdout: 0.0295

* * *

- study.conditions: in benzyl alcohol, 295.65 K
readout.type: solubility (mole fraction)
The answer should be written as a number, with no unit following it.

stdin: Fill blank: measured solubility (mole fraction) of the compound O=C1NC(=O)c2cc([N+](=O)[O-])ccc21 is ____.
stdout: 0.0245
